- Test system: Acinetobacter calcoaceticus
- assay-overview: Antibacterial activity against Acinetobacter calcoaceticus DSM 586 by paper disk diffusion method
- Assay type: functional
value-kind: MIC (mg/L)
# output: bare number, implied unit mg/L

Study these solved cases before continuing.
INSERT INTO results (smiles_code, unit_of_measure, measured_result) VALUES
  ('CC1(C)S[C@@H]2[C@H](NC(=O)[C@H](N)c3ccccc3)C(=O)N2[C@H]1C(=O)O', 'mg/L', 5),
  ('CN1CCN(c2cc3c(cc2F)c(=O)c(C(=O)O)cn3-c2ccc(F)cc2)CC1', 'mg/L', 5);

Then this compound:
Record request: MIC value, item CCCCCC[C@@H]1[C@H]2C=C[C@H]3C(C(=O)O)=C[C@@H](O)[C@@H]4C[C@@H]1[C@@H]2[C@H]43 20

These data points were gathered from ChEMBL document CHEMBL2331079.
